assayed-target: T1, human ROR1-Fz (Homo sapiens, UniProt Q01973)
T1 construct: Frizzled (Fz, residues 165-305); HIS6 (C); purchased Acro Biosystems; host or cells: HEK293
T1 sequence (Q01973 165-305): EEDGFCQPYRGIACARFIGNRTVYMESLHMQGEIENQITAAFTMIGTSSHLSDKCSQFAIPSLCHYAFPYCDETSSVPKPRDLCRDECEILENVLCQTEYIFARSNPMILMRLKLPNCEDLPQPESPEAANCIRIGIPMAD
test: Biacore off-rate and kinetic analysis, ROR1 frizzled domain
Assay type: binding
details: Table 11 (SP34 light chain)
Description: Anti-Fc polyclonal antibodies were immobilized onto a CM5 chip (GE Life Sciences) using amine coupling chemistry (from Amine Coupling Kit, GE Life Sciences). […] The data was fit with the Biacore T200 Evaluation software, using a 1-1 Langmuir binding model. KD (affinity, nM) was determined as a ratio of the kinetic rate constants calculated from the fits of the association and dissociation phases. […]
attribute-measured: Biacore human ROR1-Fz kd (s⁻¹)
Return type: number; implicit unit s⁻¹.

SRP2196-A07 (antibody, V domains shown) VH: EVQLVESGGGLVQPGGSLRLSCAASGFNITGYYIHWVRQAPGKGLEWVGQISPNSGSTYYADSVKGRFTISADTSKNTAYLQMSSLRAEDTAVYYCARDSRRYVRGWDYWGQGTLVTVSS VL: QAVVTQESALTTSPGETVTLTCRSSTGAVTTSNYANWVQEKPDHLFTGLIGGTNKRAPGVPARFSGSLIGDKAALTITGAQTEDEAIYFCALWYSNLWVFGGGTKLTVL = 0.00064
SRP2196-B08 (antibody, V domains shown) VH: EVQLVESGGGLVQPGGSLRLSCAASGFNITGYYIHWVRQAPGKGLEWVGQISPNSGYTYLADSVKGRFTISADTSKNTAYLQMNSLRAEDTAVYYCARDSRRYVRGWDYWGQGTLVTVSS VL: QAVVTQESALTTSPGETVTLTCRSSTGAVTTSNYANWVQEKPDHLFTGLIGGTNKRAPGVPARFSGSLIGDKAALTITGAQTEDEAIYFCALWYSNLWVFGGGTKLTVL = 0.000488
SRP2196-C01 (antibody, V domains shown) VH: EVQLVESGGGLVQPGGSLRLSCAASGFNIIGYYIHWVRQAPGKGLEWVGSITPLSGATSKADSVKGRFTISADTSKNTAYLQMNSLRAEDTAVYYCARDSRRYIRSWDYWGQGTLVTVSS VL: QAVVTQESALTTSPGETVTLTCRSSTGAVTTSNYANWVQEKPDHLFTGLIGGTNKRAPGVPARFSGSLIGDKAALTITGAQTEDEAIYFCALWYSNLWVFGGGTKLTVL = 0.000457

Attention now turns to another entry.
Lookup result for SRP2196-B11 (antibody, V domains shown) VH: EVQLVESGGGLVQPGGSLRLSCAASGFNITGYYIHWVRQAPGRGLEWVGQISPNSGYTYYADSVKGRFTISADTSKNTAYLQMNSLRAEDTAVYYCARDSRRYIRSWDYWGQGTLVTVSS VL: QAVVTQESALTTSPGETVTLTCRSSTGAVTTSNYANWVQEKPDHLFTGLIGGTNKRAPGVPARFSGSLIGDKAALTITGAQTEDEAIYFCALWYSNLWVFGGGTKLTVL ; measured Biacore human ROR1-Fz kd: 0.000597
